Target: pseudo-kinase domain (JH2, amino-acids 536-812) of human V617F mutant JAK2 (Homo sapiens (Human), UniProt O60674, F794H/V617F/W659A/W777A)
Sequence (O60674 536-812 V617F/W659A/W777A/F794H): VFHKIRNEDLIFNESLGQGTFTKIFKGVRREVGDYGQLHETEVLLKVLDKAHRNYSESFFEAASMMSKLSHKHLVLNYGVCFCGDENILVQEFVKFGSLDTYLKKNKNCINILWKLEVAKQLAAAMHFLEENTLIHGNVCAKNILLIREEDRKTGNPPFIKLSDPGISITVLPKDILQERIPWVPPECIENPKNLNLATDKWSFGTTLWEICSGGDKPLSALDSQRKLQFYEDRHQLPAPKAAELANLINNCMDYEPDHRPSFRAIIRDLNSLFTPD
Experiment: JAK2 LanthaScreen JH2-V617F Binding Assay
Conditions: JAK2 JH2-V617F 0.26 nM, 50 nM fluorescent tracer, 1 hour at 25° C.; read-out: JH2 BIND V617F IC50
Procedure: The assay was conducted in black 384-well polystyrene plates in a final reaction volume of 20 μL. […] Non-specific binding was accessed in the presence of 2 mM ATP. After incubation for 1 hour at 25° C., LanthaScreen signals were read on a PHERAstar FS plate reader (BMG LABTECH). Data was analyzed with IDBS XLfit and GraphPad Prism 5.0 software using a four parameter dose response curve to determine IC50 for each compound.
Counter-ions that a name gives are not always drawn.
metric: IC50

INSERT INTO measurements (compound, recorded_value) VALUES
  ('CN1C(=O)N(c2ccc(C(=O)O)cc2)Cc2c1cnc1[nH]c(-c3ccc(CN4CCC(S(C)(=O)=O)CC4)cc3)c(-c3ccn(C)c3)c21 [Example 22, trifluoroacetic acid salt]', '≤ 100 nM'),
  ('CC(=O)NCc1ccc(-c2c(-c3ccc(CN4CCC(S(C)(=O)=O)CC4)cc3)[nH]c3ncc4c(c23)CN(C(C)(C)C)C(=O)N4C)cc1 [Example 16]', '≤ 100 nM');

# IC50 (compound: CN1C(=O)N(c2ccccc2)Cc2c1cnc1[nH]c(-c3ccc(CN4CCC(S(C)(=O)=O)CC4)cc3)cc21 [Example 2] ) is 500 to 1000 nM
